- measured target: pooled human IgG (human IgG1,2,3 and 4)
recorded metric: Enzyme Activity Endpoint Assay (purified): IgG

[
  {
    "protein": "PRT-360 (protein) MSQTEDSESLQRLRDIEDFQAEKKDQNVVYTKWLDGVDVKDHDFRKIVDGNSAYYATPLLNGRGWYDINKDFNRDSDKCAAAVAANMFHYWLDRNRDNVDRFLRQNPEKHGIIELPDGQLKLSDFLNTYESDDGYRDKSKLFDFISENFNGPVWTDKLLDNYINGYAYNYKYGRTIEDPTKNTSKINFFKEVFNEKILTNNHSIRNQNEFSVLLIEALYTGKAIGLSYGPAGLRHSLGHIISVWGADLDADGNVVAIYVTDSDDKKLTIGDERVGLKRYKISTDDEGRLRLTAYEETHNTGGQVRGLWTLDTGKQAWADYFDKTEQTGTDQAEQ",
    "value reported": "191 ng/µL"
  }
]

Then this protein:
Q) Entry PRT-365 (protein) MSQTEDSESLQRLRDIEDFQAEKKKQNVVYTKWLDGVDVKDHDFRKIVDGNEAYYATPLLNGRGFYDINKDFNRDSDKCAAAVAANMFHYWLDRNRDNVDRFLRQNPEKHGIIELPDGQLKLSDFLNTYESDDGYRDKSKLFDFISENFNGPVWTDKLLDNYINGYAYNYKYGRLIEDPTKNTSKINFFKEVFNEKILTNNHSIRNQNELSVLLSEALYTGKAIGLSYGPAGTRHSLGHIISVWGADLDADGNVVAIYVTDSDDKKLTIGDERVGLKRYKISTDDEGRLRLTAYEETHNTGGQIRGLWTLDTGKQAWADYFDKTEQTGTDQAEQ : reported Enzyme Activity Endpoint Assay (purified): IgG = ?
A) 0 ng/µL
